Target: PPP1R15A-PP1 complex (Homo sapiens, UniProt O75807)
Construct: cDNAs encoding amino acids 325-636 of PPP1R15A and 340-698 of PPP1R15B were His-tagged and cloned into pMAL-c5x; made in house; host or cells: R15A: E. coli BL21-Gold (pMAL-c5x); PP1γ: Sf9 insect cells (baculovirus, pDW464)
Sequence (O75807 325-636): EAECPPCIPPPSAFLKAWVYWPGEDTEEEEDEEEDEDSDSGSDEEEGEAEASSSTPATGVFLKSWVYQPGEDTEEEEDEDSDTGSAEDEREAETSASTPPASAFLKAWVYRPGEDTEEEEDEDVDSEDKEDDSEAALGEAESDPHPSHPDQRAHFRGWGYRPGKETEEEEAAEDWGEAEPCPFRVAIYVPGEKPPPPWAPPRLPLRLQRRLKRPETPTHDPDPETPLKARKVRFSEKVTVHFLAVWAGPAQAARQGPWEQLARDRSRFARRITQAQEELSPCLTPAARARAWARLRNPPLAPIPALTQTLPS
Sequence (P36873 whole entry partner, the tested form may be a part): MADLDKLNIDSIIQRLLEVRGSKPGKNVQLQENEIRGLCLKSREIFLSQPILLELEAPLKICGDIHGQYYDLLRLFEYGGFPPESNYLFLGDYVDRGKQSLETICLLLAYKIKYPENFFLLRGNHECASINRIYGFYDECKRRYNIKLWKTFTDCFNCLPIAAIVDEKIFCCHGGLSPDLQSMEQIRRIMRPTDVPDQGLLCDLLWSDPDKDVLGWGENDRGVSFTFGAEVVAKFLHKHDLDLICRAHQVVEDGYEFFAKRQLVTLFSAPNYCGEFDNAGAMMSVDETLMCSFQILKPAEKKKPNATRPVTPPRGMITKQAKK
Experiment: SPR steady-state binding to R15A-PP1 holophosphatase
Conditions: SPR steady-state, MBP-R15A325-636-His captured on bio-PP1c, 10° C.; read-out: R15A (KD)
ENDPOINT LABEL: Kd (µM)
Unit µM implied. Number only.

Could you share which Kd value was measured for `[H]/N=C(\N)NN=Cc1c(Cl)ccc(Cl)c1Cl` ? 11.1

----------
Test system: HeLa cells
Test: Cell death dose response (CellTox green, IncuCyte)
Type: cell-based
Conditions: IncuCyte, 0-20 μM
Description: Toxicity of the compounds is assessed using Cell viability Counting Kit-8 (Dojindo) or in a Incucyte (Essenbioscience) using both phase contrast and IncuCyte™ Cytotox Green Reagent. HeLa cells (40,000 cells/ml) were plated in a 96-well plate and treated with different concentrations (0-20 μM) of a compound as indicated in the presence of 250 ng/ml Tunicamycin for 72 hours. […] Cytoprotection against ER stress can be measured by a suitable assay. […]
ENDPOINT LABEL: Effect on cell death

> print(dat)
                     structure.string  meas.value
1     [H]/N=C(\N)NN=Cc1ccc(F)c(F)c1Cl          No
2         [H]/N=C(\N)NN=Cc1ccc(Cl)cc1         Yes
3    [H]/N=C(\N)NN=Cc1ccc(Cl)c(F)c1Cl         Yes
4            [H]/N=C(\N)NN=Cc1ccccc1F          No
5       [H]/N=C(\N)NN=Cc1cccc(Cl)c1Cl         Yes
6  [H]/N=C(\N)NN=Cc1cc(Cl)c(F)c(Cl)c1         Yes
7        [H]/N=C(\N)NN=Cc1cccc(Cl)c1F          No
8       [H]/N=C(\N)NN=Cc1cccc(Cl)c1Br         Yes

Could you share which Effect on cell death value was measured for `[H]/N=C(\N)NN=Cc1cc(Cl)cc(Cl)c1Cl` ? Yes

Could you share which Effect on cell death value was measured for `[H]/N=C(\N)NN=Cc1cnc(Cl)nc1Cl` ? Yes

Could you share which Effect on cell death value was measured for `N=C(N)N/N=C/c1cc(Cl)c(Cl)cc1Cl` ? No

----------
System: HeLa cells
Experiment: Cytoprotection against ER stress (tunicamycin), IncuCyte
Type: cell-based
Conditions: Homo sapiens, 250 ng/ml Tunicamycin, 72 hours, compound 0-20 μM, read-out: Cytoprotection from Tm (compared to GNB)
ENDPOINT LABEL: Emax (%)
Unit % implied. Number only.

Reference set (6 entries):
> print(dat)
                    structure.string  meas.value
1        [H]/N=C(\N)NN=Cc1ccc(Cl)cc1           0
2       [H]/N=C(\N)NN=Cc1cccc(F)c1Cl          54
3     [H]/N=C(\N)NN=Cc1ccc(F)c(Cl)c1          46
4  [H]/N=C(\N)NN=Cc1c(Cl)ccc(Cl)c1Cl          99
5       [H]/N=C(\N)NN=Cc1cccc(Cl)c1F          85
6  [H]/N=C(\N)NN=Cc1cc(Cl)cc(Cl)c1Cl          85

Request - read-out Emax | tested on HeLa cells | compound `[H]/N=C(\N)NN=Cc1ccc(Cl)c(F)c1Cl` 73

Request - read-out Emax | tested on HeLa cells | compound `[H]/N=C(\N)NN=Cc1cc(F)c(F)cc1Cl` 100

Request - read-out Emax | tested on HeLa cells | compound `[H]/N=C(\N)NN=Cc1cc(F)c(Cl)cc1Cl` 46

Request - read-out Emax | tested on HeLa cells | compound `[H]/N=C(\N)NN=Cc1cccc(Cl)c1Br` 67

Request - read-out Emax | tested on HeLa cells | compound `[H]/N=C(\N)NN=Cc1cc(Cl)cc(Cl)c1` 57

----------
Target: PPP1R15B-PP1 (Homo sapiens, UniProt Q5SWA1)
Construct: cDNAs encoding amino acids 325-636 of PPP1R15A and 340-698 of PPP1R15B were His-tagged and cloned into pMAL-c5x; made in house; host or cells: R15B: E. coli BL21-Gold (pMAL-c5x); PP1γ: Sf9 insect cells (baculovirus, pDW464)
Sequence (Q5SWA1 340-698, one chain of several): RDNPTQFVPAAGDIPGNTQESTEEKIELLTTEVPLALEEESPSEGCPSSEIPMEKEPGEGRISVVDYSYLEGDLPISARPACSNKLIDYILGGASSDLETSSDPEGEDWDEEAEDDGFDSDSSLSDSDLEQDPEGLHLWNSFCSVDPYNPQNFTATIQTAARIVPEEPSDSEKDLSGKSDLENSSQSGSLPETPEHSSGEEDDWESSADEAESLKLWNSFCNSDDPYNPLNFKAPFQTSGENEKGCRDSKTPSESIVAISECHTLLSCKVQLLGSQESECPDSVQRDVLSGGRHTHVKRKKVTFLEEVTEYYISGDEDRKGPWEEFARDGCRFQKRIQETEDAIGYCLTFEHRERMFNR
Test: SPR steady-state binding to R15B-PP1 holophosphatase
Conditions: SPR steady-state, MBP-R15B340-698-His captured on bio-PP1c, 10° C.; read-out: R15B (KD)
ENDPOINT LABEL: pKd
Reminder that pKd means the negative base-10 logarithm of the concentration expressed in mol/L.

> print(dat)
            structure.string  meas.value
1  [H]/N=C(\N)NN=Cc1cccnc1Cl        6.27

Next compound, pKd to be filled in.
Could you share which pKd value was measured for `[H]/N=C(\N)NN=Cc1cccc(F)c1Cl` ? 5.04

----------
Tested on: HeLa cells
Experiment: Cell death dose response (CellTox green, IncuCyte)
Format: cell-based
Details: Homo sapiens, area under % cell death vs time curve against log conc, read-out: Effect on cell death ⇒ EC50
Overview of reported pEC50 across a group of compounds:
Reminder that pEC50 means the negative base-10 logarithm of the concentration expressed in mol/L.

Reference set (5 entries):
> print(dat)
                    structure.string  meas.value
1      [H]/N=C(\N)NN=Cc1cccc(Cl)c1Br        4.92
2  [H]/N=C(\N)NN=Cc1cc(Cl)cc(Cl)c1Cl        4.90
3   [H]/N=C(\N)NN=Cc1ccc(Cl)c(F)c1Cl        4.81
4       [H]/N=C(\N)NN=Cc1cc(F)ccc1Cl        4.42
5   N=C(N)N/N=C/c1cc(Cl)c(Cl)c(Cl)c1        5.04

Next compound, pEC50 to be filled in.
Could you share which pEC50 value was measured for `[H]/N=C(\N)NN=Cc1cnc(Cl)nc1Cl` ? 5.11

----------
Target: PP1 (Homo sapiens)
Construct: made in house; host or cells: Sf9 insect cells (baculovirus, pDW464)
Test: SPR binding to PP1 alone
Details: SPR steady-state, bio-PP1c surface
ENDPOINT LABEL: Kd (µM)
Unit µM implied. Number only.

Reference set (6 entries):
> print(dat)
                     structure.string  unit.abbrev  meas.value
1            [H]/N=C(\N)NN=Cc1ccccc1F           µM          12
2    [H]/N=C(\N)NN=Cc1cc(F)c(Cl)cc1Cl           µM          13
3  [H]/N=C(\N)NN=Cc1cc(Cl)c(F)c(Cl)c1           µM        30.6
4      [H]/N=C(\N)NN=Cc1ccc(Cl)c(F)c1           µM        10.6
5      N=C(N)N/N=C/c1cc(Cl)c(Cl)cc1Cl           µM         332
6         [H]/N=C(\N)NN=Cc1ccc(Cl)cc1           µM        6.28

Could you share which Kd value was measured for `[H]/N=C(\N)NN=Cc1ccc(F)c(Cl)c1` ? 6.14

Could you share which Kd value was measured for `[H]/N=C(\N)NN=Cc1cccc(Cl)c1` ? 6.27

Could you share which Kd value was measured for `N=C(N)N/N=C/c1cc(Cl)c(Cl)c(Cl)c1` ? 10.3

Could you share which Kd value was measured for `[H]/N=C(\N)NN=Cc1cccc(Cl)c1F` ? 12.8

Could you share which Kd value was measured for `N=C(N)N/N=C/c1cc(Cl)c(Cl)cc1F` ? 10.2

Could you share which Kd value was measured for `[H]/N=C(\N)NN=Cc1cccc(F)c1Cl` ? 3.65

Could you share which Kd value was measured for `[H]/N=C(\N)NN=Cc1c(Cl)ccc(Cl)c1Cl` ? 12.6

Could you share which Kd value was measured for `[H]/N=C(\N)NN=Cc1cccc(Cl)c1Br` ? 14.7

----------
System: HeLa cells
Assay: Cell death dose response (CellTox green, IncuCyte)
Type: cell-based
Details: Homo sapiens, area under % cell death vs time curve against log conc, read-out: Effect on cell death ⇒ EC50
// NB: equality with 10 µM counts as Condition not met; only EC50 strictly below is Condition met

> print(dat)
                    structure.string    label.value
1  [H]/N=C(\N)NN=Cc1ccc(Cl)c(Cl)c1Cl  Condition met
2        [H]/N=C(\N)NN=Cc1ccc(Cl)cc1  Condition met

Confirm or reject: EC50 of `[H]/N=C(\N)NN=Cc1cc(Cl)c(F)c(Cl)c1` lies strictly below 10 µM Condition met

Confirm or reject: EC50 of `[H]/N=C(\N)NN=Cc1cccc(Cl)c1Cl` lies strictly below 10 µM Condition not met

Confirm or reject: EC50 of `N=C(N)N/N=C/c1cc(Cl)c(Cl)cc1F` lies strictly below 10 µM Condition not met

Confirm or reject: EC50 of `[H]/N=C(\N)NN=Cc1ccc(Cl)c(Cl)c1` lies strictly below 10 µM Condition not met

Confirm or reject: EC50 of `[H]/N=C(\N)NN=Cc1ccc(F)c(Cl)c1Cl` lies strictly below 10 µM Condition not met

Confirm or reject: EC50 of `[H]/N=C(\N)NN=Cc1ccc(Cl)c(F)c1` lies strictly below 10 µM Condition not met

Confirm or reject: EC50 of `[H]/N=C(\N)NN=Cc1cc(F)c(Cl)cc1Cl` lies strictly below 10 µM Condition not met

Confirm or reject: EC50 of `[H]/N=C(\N)NN=Cc1ccc(F)c(Cl)c1` lies strictly below 10 µM Condition not met
